Each entry below carries its measured IC50, system: human CXCR6 (Homo sapiens, UniProt O00574).
Sequence (O00574 whole entry): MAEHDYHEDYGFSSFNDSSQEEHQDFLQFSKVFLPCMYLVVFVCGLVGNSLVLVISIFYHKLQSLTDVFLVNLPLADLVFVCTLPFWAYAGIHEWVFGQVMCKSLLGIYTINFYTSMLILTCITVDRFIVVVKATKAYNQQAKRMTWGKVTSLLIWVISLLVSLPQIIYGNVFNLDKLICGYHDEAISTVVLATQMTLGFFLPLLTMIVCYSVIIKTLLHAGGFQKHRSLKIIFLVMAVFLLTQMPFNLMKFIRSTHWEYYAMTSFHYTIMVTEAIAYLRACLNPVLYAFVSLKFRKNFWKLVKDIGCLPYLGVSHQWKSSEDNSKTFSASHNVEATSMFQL

Solved entries:
Compound | Endpoint result
COc1cc(NC(=O)c2ccnn2C)ccc1S(=O)(=O)Nc1ccc(C(F)(F)F)cc1 | 200 to 750 nM
COc1cc(NC(=O)C2CC3C=CC2C3)ccc1S(=O)(=O)Nc1cccc(C(F)(F)F)c1 (stereo not shown) | 2000 to 20000 nM

Exercise: GET /values?readout=IC50&item= "COCC1(C(=O)Nc2ccc(S(=O)(=O)Nc3cccc(C(F)(F)F)c3)c(C)c2)CC1"
Key: 2000 to 20000 nM

Exercise: Please give the result for CCOc1cc(NC(=O)C(CC2CC2)C(=O)O)ccc1S(=O)(=O)Nc1cccc(OC(F)(F)F)c1 (stereo not shown) too.
Key: ≤ 200 nM

* * *

Biological target: human CXCR6 (Homo sapiens)
pIC50: −log10 of the molar value.
Experimental readout: pIC50

Solved entries:
Molecule | pIC50
COc1cc(NC(=O)CC2COCCN2)ccc1S(=O)(=O)Nc1cccc(C(F)(F)F)c1 (centres unmarked) | 4.70 to 5.70
CCOc1cc(NC(=O)C(CCO)CC(C)C)ccc1S(=O)(=O)Nc1cccc(OC(F)(F)F)c1 (centres unmarked) | ≥ 6.70
CCOc1cc(NC(=O)[C@H](N)C(C)C)ccc1S(=O)(=O)Nc1cccc(OC(F)(F)F)c1 | ≥ 6.70
CC(=O)Nc1ccc(S(=O)(=O)Nc2cccc(C(F)(F)F)c2)c(Br)c1 | 4.70 to 5.70
Cc1cc(NC(=O)c2cccc(F)c2)ccc1S(=O)(=O)Nc1cccc(C(F)(F)F)c1 | 6.12 to 6.70

Exercise: pIC50 of "COc1ccc(NS(=O)(=O)c2ccc(NC(=O)c3ccnn3C)cc2OC)cc1C(F)(F)F" on human CXCR6 (Homo sapiens)?
Key: 6.12 to 6.70

Exercise: Please give the result for "COc1cc(NC(=O)[C@@H]2C=CCN2C(=O)OC(C)(C)C)ccc1S(=O)(=O)Nc1cccc(C(F)(F)F)c1" too.
Key: 4.70 to 5.70

Exercise: Please give the result for "O=C(Nc1ccc(S(=O)(=O)Nc2cccc(C(F)(F)F)c2)c(F)c1)c1ccccc1" too.
Key: 4.70 to 5.70

* * *

Target: human CXCR6 (Homo sapiens, UniProt O00574)
Known IC50 of a selection of molecules

Solved entries:
Molecule | IC50
CCOc1cc(NC(=O)C2CCCNC2)ccc1S(=O)(=O)Nc1cccc(OC(F)(F)F)c1 (stereo not shown) | 2000 to 20000 nM
CCCc1cc(NC(=O)[C@@H](CO)c2ccccc2)ccc1S(=O)(=O)Nc1cccc(OC(F)(F)F)c1 | ≤ 200 nM
COc1cc(NC(=O)[C@H]2CCCC[C@H]2O)ccc1S(=O)(=O)Nc1cccc(OC(F)(F)F)c1 | 200 to 750 nM
COc1cc(NC(=O)C2NC3CCC2C3)ccc1S(=O)(=O)Nc1cccc(C(F)(F)F)c1 (stereo not shown) | 2000 to 20000 nM
CCOc1cc(NC(=O)C(O)c2ccc3c(c2)OCO3)ccc1S(=O)(=O)Nc1cccc(OC(F)(F)F)c1 (stereo not shown) | 200 to 750 nM

Exercise: GET /values?readout=IC50&item= "CCOc1cc(NC(=O)[C@H]2CC=CC[C@H]2C(=O)O)ccc1S(=O)(=O)Nc1cccc(OC(F)(F)F)c1"
Key: ≤ 200 nM

Exercise: Please give the result for "COc1ccccc1C(=O)Nc1ccc(S(=O)(=O)Nc2cccc(C(F)(F)F)c2)c(OC)c1" too.
Key: 2000 to 20000 nM

* * *

pIC50: −log10 of the molar value.
Each entry below carries its measured pIC50, system: human CXCR6 (Homo sapiens, UniProt O00574).

Compound | pIC50
CCOc1cc(NC(=O)[C@@H](CO)C2CC2)ccc1S(=O)(=O)Nc1cccc(C(C)C)c1 | ≥ 6.70
CCOc1cc(NC(=O)[C@@H](NC(=O)C(F)(F)F)C(C)C)ccc1S(=O)(=O)Nc1cccc(OC(F)(F)F)c1 | ≥ 6.70

Exercise: GET /values?readout=pIC50&item= "Cc1cc(NC(=O)c2ccn(C)n2)ccc1S(=O)(=O)Nc1cccc(C(F)(F)F)c1"
Key: 4.70 to 5.70

* * *

Each entry below carries its measured pIC50, system: human CXCR6 (Homo sapiens, UniProt O00574).
pIC50: −log10 of the molar value.

Compound | Experimental readout | Endpoint result
CCc1cc(NC(=O)C2CCOCC2)ccc1S(=O)(=O)Nc1cccc(OC(F)(F)F)c1 [Example 1.056] | pIC50 | ≥ 6.70
COc1cc(NC(=O)[C@@H]2CCC[C@@H]2N)ccc1S(=O)(=O)Nc1cccc(C(F)(F)F)c1 [Example 1.347] | pIC50 | 4.70 to 5.70

Exercise: pIC50 of CCOc1cc(NC(=O)C2CCCOC2)ccc1S(=O)(=O)Nc1cccc(OC(F)(F)F)c1 (stereo not drawn) [Example 1.420] on human CXCR6 (Homo sapiens, UniProt O00574)?
Key: 6.12 to 6.70

Exercise: Please give the result for CCOc1cc(NC(=O)[C@@H](N)CC(C)C)ccc1S(=O)(=O)Nc1cccc(OC(F)(F)F)c1 [Example 1.109] too.
Key: ≥ 6.70

Exercise: Please give the result for CCOc1cc(NC(=O)C(C)C(O)C2CC3C=CC2C3)ccc1S(=O)(=O)Nc1cccc(OC(F)(F)F)c1 (stereo not drawn) [Example 1.517] too.
Key: 6.12 to 6.70

Exercise: Please give the result for C=Cc1cc(NS(=O)(=O)c2ccc(NC(=O)[C@@H](CO)c3ccccc3)cc2OCC)ccc1C [Example 1.372] too.
Key: ≥ 6.70

Exercise: Please give the result for CCOc1cc(NC(=O)C(CO)CC2CCOCC2)ccc1S(=O)(=O)Nc1cccc(OC(F)(F)F)c1 (stereo not drawn) [Example 1.309] too.
Key: 6.12 to 6.70

Exercise: Please give the result for COc1cc(NC(=O)C2CC3C=CC2O3)ccc1S(=O)(=O)Nc1cccc(OC(F)(F)F)c1 (stereo not drawn) [Example 1.179] too.
Key: 6.12 to 6.70

Exercise: Please give the result for CCOc1cc(NC(=O)c2ccnc(N)c2)ccc1S(=O)(=O)Nc1cccc(OC(F)(F)F)c1 [Example 1.117] too.
Key: ≥ 6.70

Exercise: Please give the result for CCOc1cc(NC(=O)C2COC[C@H]2O)ccc1S(=O)(=O)Nc1cccc(OC(F)(F)F)c1 (mixture of isomers) [Example 1.518] too.
Key: 6.12 to 6.70

Exercise: Please give the result for COc1cc(NC(=O)C2CCCCO2)ccc1S(=O)(=O)Nc1cccc(C(F)(F)F)c1 (stereo not drawn) [Example 1.572] too.
Key: 5.70 to 6.12

Exercise: Please give the result for COc1cc(NC(=O)c2ccn(C)c(=O)c2)ccc1S(=O)(=O)Nc1cccc(OC(F)(F)F)c1 [Example 1.038] too.
Key: 6.12 to 6.70

Exercise: Please give the result for COc1cc(NC(=O)c2ccnn2C)ccc1S(=O)(=O)Nc1cc(Cl)cc(C(F)(F)F)c1 [Example 1.011] too.
Key: 5.70 to 6.12

Exercise: Please give the result for COc1cc(NC(=O)c2ccnn2C)ccc1S(=O)(=O)Nc1cccc(C(F)(F)F)c1 [Example 1.153] too.
Key: 6.12 to 6.70

Exercise: Please give the result for CCOc1cc(NC(=O)C(CC2CCOCC2)C(=O)O)ccc1S(=O)(=O)Nc1cccc(OC(F)(F)F)c1 (stereo not drawn) [Example 1.118] too.
Key: ≥ 6.70

* * *

Each entry below carries its measured IC50, system: human CXCR6 (Homo sapiens).

Exercise: GET /values?readout=IC50&item= COc1cc(NC(=O)[C@H]2CCOC[C@H]2C)ccc1S(=O)(=O)Nc1cccc(C(F)(F)F)c1 (racemic)
Key: 200 to 750 nM

Exercise: Please give the result for "COc1cc(NC(C)=O)cc(F)c1S(=O)(=O)Nc1cccc(OC(F)(F)F)c1" too.
Key: 2000 to 20000 nM

Exercise: Please give the result for "CC(=O)Nc1cc(C)c(S(=O)(=O)Nc2cccc(OC(F)(F)F)c2)c(F)c1" too.
Key: 2000 to 20000 nM

Exercise: Please give the result for "Cc1cc(NC(=O)c2cncn2C)ccc1S(=O)(=O)Nc1cccc(C(F)(F)F)c1" too.
Key: 2000 to 20000 nM

Exercise: Please give the result for "COc1cc(NC(=O)c2ccnn2C)ccc1S(=O)(=O)Nc1ccc(C)c(OC(F)(F)F)c1" too.
Key: ≤ 200 nM

Exercise: Please give the result for CCOc1cc(NC(=O)C2CCOC2)ccc1S(=O)(=O)Nc1cccc(OC(F)(F)F)c1 (stereo not drawn) too.
Key: 200 to 750 nM

Exercise: Please give the result for COc1cc(NC(=O)C2CC3C=CC2O3)ccc1S(=O)(=O)Nc1cccc(OC(F)(F)F)c1 (stereo not drawn) [Example 1.370] too.
Key: 750 to 2000 nM

Exercise: Please give the result for "CCOc1cc(NC(=O)c2cccc3cn[nH]c23)ccc1S(=O)(=O)Nc1cccc(OC(F)(F)F)c1" too.
Key: 200 to 750 nM

Exercise: Please give the result for "CCOc1cc(NC(=O)[C@@H](CO)c2ccccc2)ccc1S(=O)(=O)Nc1cccc(C(C)C)c1" too.
Key: ≤ 200 nM

Exercise: Please give the result for "Cc1ccc(C(=O)Nc2ccc(S(=O)(=O)Nc3cccc(C(F)(F)F)c3)c(C)c2)cc1" too.
Key: 750 to 2000 nM

Exercise: Please give the result for CCOc1cc(NC(=O)C(O)c2cccc(C(F)(F)F)c2)ccc1S(=O)(=O)Nc1cccc(OC(F)(F)F)c1 (stereo not drawn) too.
Key: ≤ 200 nM

Exercise: Please give the result for CCOc1cc(NC(=O)CC(O)CC2CCOCC2)ccc1S(=O)(=O)Nc1cccc(OC(F)(F)F)c1 (stereo not drawn) too.
Key: 2000 to 20000 nM
